Target: NR2F6 (Homo sapiens, UniProt P10588)
Construct: expressed in transfected cells; also transient transfection
Sequence (P10588 1-404): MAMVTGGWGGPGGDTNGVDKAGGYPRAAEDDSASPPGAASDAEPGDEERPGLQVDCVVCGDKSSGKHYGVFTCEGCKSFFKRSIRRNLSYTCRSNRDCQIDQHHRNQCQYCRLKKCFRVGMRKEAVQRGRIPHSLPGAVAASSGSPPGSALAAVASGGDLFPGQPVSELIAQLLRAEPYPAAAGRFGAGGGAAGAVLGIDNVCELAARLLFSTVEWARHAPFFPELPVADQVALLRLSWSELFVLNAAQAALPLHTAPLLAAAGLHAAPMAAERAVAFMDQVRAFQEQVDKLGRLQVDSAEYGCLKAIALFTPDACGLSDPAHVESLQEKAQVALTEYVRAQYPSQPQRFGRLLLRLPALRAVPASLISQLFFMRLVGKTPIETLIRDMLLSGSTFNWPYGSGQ
Assay: NR2F6 agonist screening, Firefly signal cmpd/DMSO
Format: cell-based
Details: C11 analogs follow set (Tables 2-10), repeat 1
OUTCOME_MEASURE: Firefly, cmpd/DMSO repeat 1

Recorded results for 3 molecules are shown here.
CC(C)(C)c1ccc(S(=O)(=O)c2cc3ccccc3oc2=O)cc1 2.8
Cc1cc(C)cc(NC(=O)c2ccc3oc(=O)c(S(=O)(=O)c4ccc(F)cc4)cc3c2)c1 3.7
O=c1oc2ccccc2cc1S(=O)(=O)c1ccc(F)c(Cl)c1 11.0

I = O=c1oc2ccccc2cc1S(=O)(=O)c1ccc(Br)cc1
II = Cc1cccc(NC(=O)c2ccc3oc(=O)c(S(=O)(=O)c4ccc(Cl)cc4)cc3c2)c1C
Which entry has a larger number for Firefly, cmpd/DMSO repeat 1, I or II ? Refer to your chosen item by its label in the answer.
II

P = COc1ccc2cc(S(=O)(=O)c3cc(F)cc(F)c3)c(=O)oc2c1
Q = COc1ccc(S(=O)(=O)c2cc3ccc(OC)cc3oc2=O)cc1
R = COc1ccc2cc(S(=O)(=O)c3ccc(Cl)c(Cl)c3)c(=O)oc2c1
Descending sort on Firefly, cmpd/DMSO repeat 1 required. Output the labels ranked as instructed.
R, P, Q

a = COc1cccc(NC(=O)c2ccc3oc(=O)c(S(=O)(=O)c4ccc(F)cc4)cc3c2)c1
b = O=c1oc2ccc(Cl)cc2cc1S(=O)(=O)c1ccccc1
Would you mind telling me which has the lower recorded Firefly, cmpd/DMSO repeat 1 between a and b ? Refer to your chosen item by its label in the answer.
b

I = Cc1ccc(S(=O)(=O)c2cc3cc(C(=O)Nc4cccc(C)c4C)ccc3oc2=O)cc1
II = COc1ccc(NC(=O)c2ccc3oc(=O)c(S(=O)(=O)c4ccc(Cl)cc4)cc3c2)cc1OC
Which entry has a larger number for Firefly, cmpd/DMSO repeat 1, I or II ? Refer to your chosen item by its label in the answer.
I
(I: 38.1, II: 4.4)

P = N#Cc1cccc(S(=O)(=O)c2cc3cc(Cl)ccc3oc2=O)c1
Q = O=c1oc2ccc([N+](=O)[O-])cc2cc1S(=O)(=O)c1ccc(Cl)c(Cl)c1
R = Cc1ccc(S(=O)(=O)c2cc3cc(Br)ccc3oc2=O)cc1Cl
S = Cc1ccccc1NC(=O)c1ccc2oc(=O)c(S(=O)(=O)c3ccc(F)cc3)cc2c1
Descending sort on Firefly, cmpd/DMSO repeat 1 required. Output the labels ranked as instructed.
P, S, Q, R
